Counter-ions that a name gives are not always drawn.
endpointLabel: melting point

compound | endpointLabel | recordedResult
COc1c(-c2ccc(C3(N)CCCC3)cn2)ccc2[nH]ncc12 (as salt: hydrochloride) [Compound 5-46, trihydrochloride] | melting point | 195 to 203 °C (dec.)
CC(C)(N)c1ccc(-c2ccc3[nH]ncc3c2OC2CC2)nc1 (as salt: hydrochloride) [Compound 5-70, trihydrochloride] | melting point | 203 to 205 °C (dec.)
CC(C)(N)c1ccc(-c2ccc3[nH]nc(C#N)c3c2)cc1 (as salt: hydrochloride) [Compound 5-13, dihydrochloride] | melting point | 224 to 227 °C (dec.)
COc1c(-c2ccc(C(C)(C)N)cc2)ccc2[nH]ncc12 (as salt: hydrochloride) [Compound 5-44, dihydrochloride] | melting point | 258 to 261 °C (dec.)
CC(C)Oc1c(-c2ccc(C(C)(C)N)cc2)ccc2[nH]ncc12 (as salt: hydrochloride) [Compound 5-40, dihydrochloride] | melting point | 242 to 246 °C (dec.)
CC(=O)n1ncc2ccc(-c3ccc(C(C)(C)N)cc3)cc21 (as salt: hydrochloride) [Compound 5-38, dihydrochloride] | melting point | 225 to 230 °C
CC(C)(N)c1ccc(-c2ccc3cn[nH]c3c2)cc1 (as salt: hydrochloride) [Compound 5-37, dihydrochloride] | melting point | 265 to 269 °C
CC(C)(C)OC(=O)NC(C)(C)c1ccc(-c2ccc3nn(C4CCCCO4)cc3c2-c2cc[nH]n2)cc1 (stereo not shown) [Compound 30] | melting point | 99 to 105 °C
CN(C)c1c(-c2ccc(C(C)(C)N)cc2)ccc2[nH]ncc12 (as salt: hydrochloride) [Compound 5-16, trihydrochloride] | melting point | 219 to 224 °C (dec.)
CC(C)(N)c1ccc(-c2ccc3[nH]ncc3c2[N+](=O)[O-])cc1 (as salt: hydrochloride) [Compound 5-4, monohydrochloride] | melting point | 255 to 261 °C (dec.)
CC(C)(N)c1ccc(-c2ccc3[nH]ncc3c2-n2cccc2)cc1 (as salt: hydrochloride) [Compound 5-39, dihydrochloride] | melting point | 244 to 247 °C (dec.)
CCOc1c(-c2ccc(C(C)(C)N)cc2)ccc2[nH]ncc12 (as salt: hydrochloride) [Compound 5-49, dihydrochloride] | melting point | 248 to 256 °C (dec.)
CC(C)(N)c1ccc(-c2ccc3[nH]ncc3c2OCC2CC2)nc1.Cl.Cl.Cl [Compound 5-73] | melting point | 270 to 272 °C (dec.)

The reported numbers originate from patent US8232308B2.
